assay: Blood circulation of drug-loaded vesicles; conditions: nude Balb/C, mouse, whole blood, intravenous, 10 mg/kg
Where a name gives a salt, the structure may show the parent alone.
RECORDED_ENDPOINT: half-life (min)
Value expressed in min; do not type the unit.

For the molecule COc1cccc2c1C(=O)c1c(O)c3c(c(O)c1C2=O)C[C@@](O)(C(=O)CO)C[C@@H]3O[C@H]1C[C@H](N)[C@H](O)[C@H](C)O1 [DOX.HCl, doxorubicin hydrochloride] , report half-life.
7.8
